Biological target: SIX1-Q177R homeodomain (human, UniProt Q15475 108-198, Q177R)
Sequence: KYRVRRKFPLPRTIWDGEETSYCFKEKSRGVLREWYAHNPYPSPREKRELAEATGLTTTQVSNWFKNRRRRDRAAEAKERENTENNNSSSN
Assay: universal protein binding microarray; Universal all-10-mer PBM (8x60K, AMADID 030236), 300 nM GST-tagged protein, Alexa Fluor 488 anti-GST; buffer, salt, pH and temperature not stated (as in Berger); high values mean tight binding
Settings: protein: ivt; tags: N-terminal GST; dsDNA, one strand shown
The full ranking holds about 33,000 sequences; the median of “e-score” is about -0.05, and the highest 2% start at about 0.38. The sample as a whole holds a higher share of the highest values than the screen did.
# binding signal listing for each entry below
Please give the number followed by its unit.

Examples from the recorded data:
>  <ordered-residues>
AGTGTCTC

>  <measurement-target>
SIX1-Q177R homeodomain (human, UniProt Q15475 108-198, Q177R)

>  <result>
0.329 E-score

$$$$
>  <ordered-residues>
CCATGACA

>  <measurement-target>
SIX1-Q177R homeodomain (human, UniProt Q15475 108-198, Q177R)

>  <result>
0.222 E-score

$$$$
>  <ordered-residues>
CAAGACAC

>  <measurement-target>
SIX1-Q177R homeodomain (human, UniProt Q15475 108-198, Q177R)

>  <result>
0.402 E-score

$$$$
>  <ordered-residues>
CCTCTCGA

>  <measurement-target>
SIX1-Q177R homeodomain (human, UniProt Q15475 108-198, Q177R)

>  <result>
0.17 E-score

$$$$
>  <ordered-residues>
CGTGTCGC

>  <measurement-target>
SIX1-Q177R homeodomain (human, UniProt Q15475 108-198, Q177R)

>  <result>
0.44 E-score

$$$$

Now, please, on to the next sequence.
Output binding signal of GCTACCCC
0.23 E-score
